// provenance: ChEMBL document CHEMBL1132507

target: Prothrombin (Homo sapiens); assay: Apparent association constant towards thrombin.
Measurement type: K ass

molecule=Oc1ccc2c(Cc3ccc(O[C@@H]4CCCC[C@H]4N4CCCCC4)nc3)c(-c3ccc(OCCN4CCCC4)cc3)sc2c1 reported_result="9.61e+07 l M-1"
molecule=COc1ccc2c(Cc3ccc(O[C@@H]4CCCC[C@H]4N4CCCCC4)cc3)c(-c3ccc(OCCN4CCCC4)cc3)sc2c1 reported_result="3.83e+06 l M-1"
molecule=Oc1cccc2sc(-c3ccc(OCCN4CCCC4)cc3)c(Cc3ccc(O[C@@H]4CCCC[C@H]4N4CCCCC4)cc3)c12 reported_result="1.73e+06 l M-1"
molecule=O=C(c1ccc(O[C@@H]2CCCC[C@H]2N2CCCC2)cc1)c1c(-c2ccc(OCCN3CCCC3)cc2)sc2ccccc12 reported_result="510000 l M-1"
molecule=COc1cc(Cc2c(-c3ccc(OCCN4CCCC4)cc3)sc3cc(O)ccc23)ccc1O[C@@H]1CCCC[C@H]1N1CCCC1 reported_result="3.09e+08 l M-1"
molecule=COc1cc(Cc2c(-c3ccc(OCCN4CCCC4)cc3)sc3cc(O)ccc23)ccc1O[C@@H]1CCCC[C@H]1N1CCCCC1 reported_result="1.16e+08 l M-1"
molecule="Oc1ccc2sc(-c3ccc(OCCN4CCCC4)cc3)c(Cc3ccc(OC4CCCC[C@H]4N4CCCCC4)cc3)c2c1 (stereo partly drawn)" reported_result="1.39e+07 l M-1"
molecule=Oc1ccc2c(Cc3ccc(O[C@@H]4CCCC[C@H]4N4CCCC4)c(O)c3)c(-c3ccc(OCCN4CCCC4)cc3)sc2c1 reported_result="1.12e+07 l M-1"

Quick one: K ass of Oc1ccc2c(Cc3ccc(O[C@@H]4CCC[C@H]4N4CCCCC4)cc3)c(-c3ccc(OCCN4CCCC4)cc3)sc2c1 ?
4.73e+07 l M-1

Likewise for COc1ccc2sc(-c3ccc(OCCN4CCCC4)cc3)c(Cc3ccc(O[C@@H]4CCCC[C@H]4N4CCCCC4)cc3)c2c1 ?
3.65e+07 l M-1

Likewise for Oc1ccc2c(Cc3ccc(O[C@@H]4CCCC[C@H]4n4ccnc4)cc3)c(-c3ccc(OCCN4CCCC4)cc3)sc2c1 ?
8.08e+06 l M-1

Likewise for Oc1ccc2c(Cc3ccc(O[C@@H]4CCCC[C@H]4N4CCCC4)c(F)c3)c(-c3ccc(OCCN4CCCC4)cc3)sc2c1 ?
1.21e+08 l M-1

Likewise for Oc1ccc2c(Cc3ccc(O[C@@H]4CCCC[C@H]4N4CCCCC4)cc3)c(-c3ccc(OCCN4CCCC4)cc3)sc2c1 ?
2.12e+08 l M-1

Likewise for O=C(c1ccc(O[C@@H]2CCCC[C@H]2N2CCCCC2)cc1)c1c(-c2ccc(OCCN3CCCC3)cc2)sc2ccccc12 ?
1.17e+06 l M-1

* * *

target: Prothrombin (Homo sapiens) (UniProt P00734); assay: Apparent association constant towards thrombin.
Measurement type: K ass

Answered examples (3):
given_smiles=Oc1ccc2c(Cc3ccc(O[C@@H]4CCCC[C@H]4N4CCOCC4)cc3)c(-c3ccc(OCCN4CCCC4)cc3)sc2c1 measurement_type="K ass" reported_result="1.81e+07 l M-1"
given_smiles=Oc1ccc2c(Cc3ccc(O[C@@H]4CCCC[C@H]4N4CCCCC4)c(F)c3)c(-c3ccc(OCCN4CCCC4)cc3)sc2c1 measurement_type="K ass" reported_result="2.03e+08 l M-1"
given_smiles=Oc1ccc2c(Cc3ccc(O[C@@H]4CCCC[C@H]4N4CCCCCC4)cc3)c(-c3ccc(OCCN4CCCC4)cc3)sc2c1 measurement_type="K ass" reported_result="7.48e+07 l M-1"

Quick one: K ass of CCN(CC)[C@@H]1CCCC[C@H]1Oc1ccc(Cc2c(-c3ccc(OCCN4CCCC4)cc3)sc3cc(O)ccc23)cc1 ?
4.98e+07 l M-1

Likewise for Cc1cc(Cc2c(-c3ccc(OCCN4CCCC4)cc3)sc3cc(O)ccc23)ccc1O[C@@H]1CCCC[C@H]1N1CCCC1 ?
3.49e+08 l M-1

Likewise for COc1cccc2c(Cc3ccc(O[C@@H]4CCCC[C@H]4N4CCCCC4)cc3)c(-c3ccc(OCCN4CCCC4)cc3)sc12 ?
118000 l M-1

* * *

target: Prothrombin (Homo sapiens) (UniProt P00734); experiment: Apparent association constant towards thrombin.
Parameter K ass: see the listing below.

Answered examples (6):
given_smiles=Oc1ccc2c(Cc3ccc(O[C@@H]4CCCC[C@H]4N4CCCC4)c(Br)c3)c(-c3ccc(OCCN4CCCC4)cc3)sc2c1 measured_on="Prothrombin (Homo sapiens) (UniProt P00734)" measurement_type="K ass" reported_result="2.8e+08 l M-1"
given_smiles=c1ccc2c(Cc3ccc(O[C@@H]4CCCC[C@H]4N4CCCCC4)cc3)c(-c3ccc(OCCN4CCCC4)cc3)sc2c1 measured_on="Prothrombin (Homo sapiens) (UniProt P00734)" measurement_type="K ass" reported_result="2.04e+07 l M-1"
given_smiles=Oc1ccc2c(Cc3ccc(O[C@@H]4CCCC[C@H]4N4CCCC4)c(C(F)(F)F)c3)c(-c3ccc(OCCN4CCCC4)cc3)sc2c1 measured_on="Prothrombin (Homo sapiens) (UniProt P00734)" measurement_type="K ass" reported_result="6.84e+07 l M-1"
given_smiles=CN(C)[C@@H]1CCCC[C@H]1Oc1ccc(Cc2c(-c3ccc(OCCN4CCCC4)cc3)sc3cc(O)ccc23)cc1 measured_on="Prothrombin (Homo sapiens) (UniProt P00734)" measurement_type="K ass" reported_result="5.11e+07 l M-1"
given_smiles=COc1cc(Cc2c(-c3ccc(OCCN4CCCC4)cc3)sc3cc(O)ccc23)ccc1O[C@@H]1CCCC[C@H]1N(C)C measured_on="Prothrombin (Homo sapiens) (UniProt P00734)" measurement_type="K ass" reported_result="1.46e+08 l M-1"
given_smiles=Oc1cccc2c(Cc3ccc(O[C@@H]4CCCC[C@H]4N4CCCCC4)cc3)c(-c3ccc(OCCN4CCCC4)cc3)sc12 measured_on="Prothrombin (Homo sapiens) (UniProt P00734)" measurement_type="K ass" reported_result="1.08e+06 l M-1"

Quick one: K ass of O=C(c1ccc(O[C@@H]2CCCC[C@H]2N2CCCCCC2)cc1)c1c(-c2ccc(OCCN3CCCC3)cc2)sc2ccccc12 ?
490000 l M-1

Likewise for Oc1ccc2c(Cc3ccc(O[C@@H]4CCCC[C@H]4N4CCCC4)cc3)c(-c3ccc(OCCN4CCCC4)cc3)sc2c1 ?
2.18e+08 l M-1
